Data provenance: ChEMBL document CHEMBL4513216

Kindly state INHIBITION for each of the entries shown.
System: Plasmodium berghei
experiment_notes: Screen against P. berghei liver stage (PbLuc), transformed with Luciferase, at 10uM
Format: functional, HepG2
run_conditions: tested at 10 uM
Screen size: about 69,000 compounds; about 8,600 (12%) showed an effect of 50% or more. The sample holds strong results, similar compounds and a random draw of the others, so the mix is not that of the screen.
Answers are plain numbers, in %.

Sample records with INHIBITION:
C=C(C)CNC(C)c1ccc(S(C)(=O)=O)c(F)c1 (stereo unspecified) : -13.1
Cc1cccc(CN2C(=O)C[C@H]3[C@@H]2CCN3CC2CC2)n1 : -14.3
C=C(C)COc1cccc(C(=O)NC(C)c2nnn[nH]2)c1 (stereo unspecified) : 52.1
COc1c(C2CCCN2C(=O)c2ccc(C#N)cc2)c(C)nn1C (stereo unspecified) : 7.67
CC(C)NC(=O)C1Cc2nc(-c3ccsc3)sc2N1CC1CC1 (stereo unspecified) : 23.3
Cc1cc(C)c(CNC(=O)N(C)Cc2cccc(C#N)c2)c(=O)[nH]1 : -3.7
CCn1c(C)cc(C(=O)N2C[C@@H](C(=O)O)[C@H](c3ccccc3)C2)c1C : 35.8
Cn1cc(CNCCNc2ncc(Cl)cc2Cl)cn1 : -14.5
Cc1ccc(NCc2cc(C#N)ccc2F)cc1-n1nnnc1C : -3.83
Cc1cc(C(=O)NC(C)c2nnn[nH]2)c2ccc(C)c(C)c2n1 (stereo unspecified) : -11.6

// switching to the query compound
CCC(=O)c1ccc(OCC(=O)NC(C)c2nnn[nH]2)cc1 (stereo unspecified) has a reported INHIBITION of -47.9
